Reference source: paper PMC9727182

ASSAY_TEXT: Multicomponent pharmacokinetics in rat plasma after i.v. safflower injection (SI)
EXPERIMENTAL_CONDITIONS: male, Sprague-Dawley, rat, plasma, iv, 4 ml/kg
READOUT_TYPE: AUC(0-t) (ng·h/mL)
Write down the numeric answer in ng·h/mL and omit the unit.

1. O=Cc1ccc(O)cc1 [p-HBA, p-hydroxybenzaldehyde] ... 35.2

Name the recorded AUC(0-t) for O=C(O)[C@H]1O[C@@H](Oc2cc3oc(-c4ccc(O)cc4)cc(=O)c3c(O)c2O)[C@H](O)[C@@H](O)[C@@H]1O .
306

And the next one, C[C@@H]1O[C@@H](OC[C@H]2O[C@@H](Oc3c(-c4ccc(O)c(O)c4)oc4cc(O)cc(O)c4c3=O)[C@H](O)[C@@H](O)[C@@H]2O)[C@H](O)[C@H](O)[C@H]1O ?
12.4

# iterate: O=C(O)/C=C/c1ccc(O)cc1
433
